# Tested on: K562 cells
# procedure text: MTT growth inhibition of K562 cells by irradiated aliquots
# Type: cell-based, human
# experimental context: irradiation time 0.5 hours; DMF at 1 mM initial drug concentration
value type: IC50
Hey, just the number and the unit after it is fine.

IC50 reading for COc1cc(COC(=O)N2c3cc(OCc4ccccc4)c(OC)cc3C(=O)N3CCC[C@H]3C2O)c([N+](=O)[O-])cc1OC (stereo partly shown) : 980 nM

====

# System: SKOV3
# procedure text: Ovarian cell line cytotoxicity, SRB, 96 hours
# Format: cell-based
# experimental context: Homo sapiens, SK-OV-3; SKOV3, 96 hours
value type: IC50 (nM)
Response body: numeric value in nM, unit text excluded.

IC50 reading for COc1cc2c(cc1OC)C(=O)N1CCC[C@H]1C=N2 : 1700

====

# System: SW1116 and LS174T cell lines
# procedure text: Nitroreductase-activation cytotoxicity, SRB assay, 'same cell lines' (value not assigned to one line)
# Type: cell-based, human
# experimental context: Homo sapiens; no enzyme; average of two experiments; cell line not specified; read-out: IC50 of prodrug alone
value type: IC50 (µM)
Response body: numeric value in µM, unit text excluded.

IC50 reading for CC=C1C[C@H]2C(O)N(C(=O)OCc3ccc([N+](=O)[O-])cc3)c3cc(OCc4ccccc4)c(OC)cc3C(=O)N2C1 (stereo partly shown) : 86.2

====

# Test system: SW1116 and LS174T cell lines
# procedure text: Nitroreductase-activation cytotoxicity, SRB assay, 'same cell lines' (value not assigned to one line)
# Format: cell-based, human
# experimental context: after addition of enzyme conjugate and NADH; cell line not specified; read-out: IC50 of the nitroreductase-activated prodrug
value type: IC50

IC50 reading for COc1cc2c(cc1OCc1ccccc1)N(C(=O)OCc1ccc([N+](=O)[O-])cc1)C(O)[C@@H]1CCCN1C2=O (stereo partly shown) : 1000 to 5000 nM

====

# Tested on: LS174T cells
# procedure text: Nitroreductase-activation cytotoxicity, SRB assay, LS174T cells
# Type: cell-based, human
# experimental context: Homo sapiens, LS174T; read-out: cytotoxicity (IC50) of the parent agent
# Description: Compound 7, synthesized according to example 1, was evaluated in two different cell lines, namely SW1116 and LS174T. Both SW1116 and LS174T are human adenocarcinoma colonic cell lines, which were grown at Charing Cross hospital. […] The concentration of the remaining viable cells adhering to the plates was quantified by a sulforhodamine B (SRB) dye. […]
value type: IC50 (pM)
Response body: numeric value in pM, unit text excluded.

Entry COc1cc2c(cc1OCCCOc1cc3c(cc1OC)C(=O)N1CCC[C@H]1C=N3)N=C[C@@H]1CCCN1C2=O [DSB-120, reference compound] , tested on LS174T cells, has a reported IC50 of 500

====

# Test system: LS174T cells
# procedure text: Nitroreductase-activation cytotoxicity, SRB assay, LS174T cells
# Assay type: cell-based, human
# experimental context: LS174T, no enzyme; average of two measurements; read-out: IC50 of prodrug alone
value type: pIC50
// field semantics: pIC50 = negative decimal log of concentration (mol/L)

pIC50 reading for COc1cc2c(cc1OCCCOc1cc3c(cc1OC)C(=O)N1CCC[C@H]1C(O)N3C(=O)OCc1ccc([N+](=O)[O-])cc1)N(C(=O)OCc1ccc([N+](=O)[O-])cc1)C(O)[C@@H]1CCCN1C2=O (stereo partly shown) : 3.67

====

# Tested on: K562 cells
# procedure text: MTT growth inhibition of K562 cells by irradiated aliquots
# Format: cell-based, human
# experimental context: irradiation time 0.5 hours; DMF at 10 mM initial drug concentration
value type: pIC50
// field semantics: pIC50 = negative decimal log of concentration (mol/L)

pIC50 reading for COc1cc(COC(=O)N2c3cc(OCc4ccccc4)c(OC)cc3C(=O)N3CCC[C@H]3C2O)c([N+](=O)[O-])cc1OC (stereo partly shown) : 5.36

====

# Tested on: K562 cells
# procedure text: MTT growth inhibition of K562 cells by irradiated aliquots
# Format: cell-based, human
# experimental context: irradiation time 2.0 hours; DMF at 1 mM initial drug concentration
value type: pIC50
// field semantics: pIC50 = negative decimal log of concentration (mol/L)

Entry COc1cc(COC(=O)N2c3cc(OCc4ccccc4)c(OC)cc3C(=O)N3CCC[C@H]3C2O)c([N+](=O)[O-])cc1OC (stereo partly shown) [Compound 11] , tested on K562 cells, has a reported pIC50 of 6.22

====

# System: K562 cells
# procedure text: MTT growth inhibition of K562 cells by irradiated aliquots
# Format: cell-based, human
# experimental context: irradiation time 1.0 hours; FIG. 8: DMF at 1 mM, text says methanol
value type: IC50 (µM)
Response body: numeric value in µM, unit text excluded.

Entry COc1cc(COC(=O)N2c3cc(OCc4ccccc4)c(OC)cc3C(=O)N3CCC[C@H]3C2O)c([N+](=O)[O-])cc1OC (stereo partly shown) , tested on K562 cells, has a reported IC50 of 4

====

# System: K562 cells
# procedure text: MTT growth inhibition of K562 cells by irradiated aliquots
# Format: cell-based, human
# experimental context: irradiation time 2.0 hours; DMF at 10 mM initial drug concentration
# Experimental: An MTT assay was used to evaluate the ability of aliquots of the activated analogues, which were removed at time intervals, to inhibit the growth of chronic human histiocytic leukaemia K562 cells in culture. […] The optical density was then measured at a wavelength of 550 nm on a Titertek Multiscan ELISA plate reader and expressed as a percentage of the control optical density. […]
value type: pIC50
// field semantics: pIC50 = negative decimal log of concentration (mol/L)

pIC50 reading for COc1cc(COC(=O)N2c3cc(OCc4ccccc4)c(OC)cc3C(=O)N3CCC[C@H]3C2O)c([N+](=O)[O-])cc1OC (stereo partly shown) : 5.76
